SYSTEM: CYP2D6 (Homo sapiens, UniProt P10635)
Sequence (P10635 whole entry): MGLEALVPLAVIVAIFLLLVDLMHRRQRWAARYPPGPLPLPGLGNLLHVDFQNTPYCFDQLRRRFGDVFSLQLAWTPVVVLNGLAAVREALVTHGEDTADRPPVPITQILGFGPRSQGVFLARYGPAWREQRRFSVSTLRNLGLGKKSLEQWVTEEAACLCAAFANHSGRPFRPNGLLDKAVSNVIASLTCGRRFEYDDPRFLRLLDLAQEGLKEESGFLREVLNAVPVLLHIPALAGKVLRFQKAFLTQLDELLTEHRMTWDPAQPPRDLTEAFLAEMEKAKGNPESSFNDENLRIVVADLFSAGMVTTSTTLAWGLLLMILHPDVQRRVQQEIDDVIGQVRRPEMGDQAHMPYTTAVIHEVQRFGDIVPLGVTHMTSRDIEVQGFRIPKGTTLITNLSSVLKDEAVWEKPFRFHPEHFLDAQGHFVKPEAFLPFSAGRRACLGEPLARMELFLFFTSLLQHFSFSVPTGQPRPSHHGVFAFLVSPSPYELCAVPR
ASSAY NAME: CYP2D6 inhibition, dextromethorphan probe in human liver microsomes
EXPERIMENTAL PARAMETERS: human, human liver microsomes, pH 7.4, probe dextromethorphan 5 μM, Residual activity (%) CYP2D6, HLM 0.5 mg/mL
Below is a list of entries, each paired with its recorded activity at 30 min value.
QUANTITY: activity at 30 min (%)

* CC(CC(=O)CC(C)C1CC(=O)C2(C)C3=C(C(=O)CC12C)C1(C)CCC(O)C(C)(CO)C1CC3O)C(=O)O (centres unmarked) | 79.7
* CC(=CC(=O)CC(C)C(=O)O)C1CC(=O)C2(C)C3=C(C(=O)C(O)C12C)C1(C)CCC(O)C(C)(C)C1CC3=O (centres unmarked) | 99.4
* CC(CC(=O)CC(C)C1CC(=O)C2(C)C3=C(C(=O)CC12C)C1(C)CCC(=O)C(C)(CO)C1CC3O)C(=O)O (centres unmarked) | 76.9
* CC(CC(=O)CC(C)C1CC(O)C2(C)C3=C(C(=O)CC12C)C1(C)CCC(=O)C(C)(C)C1CC3)C(=O)O (centres unmarked) | 103
* CC(CC(=O)CC(C)C1CC(O)C2(C)C3=C(C(=O)CC12C)C1(C)CCC(O)C(C)(CO)C1CC3=O)C(=O)O (centres unmarked) | 76.9
* CC(CC(=O)CC(C)C1CC(=O)C2(C)C3=C(C(=O)C(O)C12C)C1(C)CCC(=O)C(C)(CO)C1CC3O)C(=O)O (centres unmarked) | 76.5
* CC(=CC(=O)CC(C)C(=O)O)C1CC(=O)C2(C)C3=C(C(=O)CC12C)C1(C)CCC(=O)C(C)(CO)C1CC3O (centres unmarked) | 82.4
* CC(=O)OC1C(=O)C2=C(C(O)CC3C2(C)CCC(O)C3(C)C)C2(C)C(=O)CC(C(C)=CC(=O)CC(C)C(=O)O)C12C (centres unmarked) | 104
* CC(CC(=O)CC(C)C1CC(O)C2(C)C3=C(C(=O)CC12C)C1(C)CCC(=O)C(C)(C)C1CC3=O)C(=O)O (centres unmarked) | 93.7
* CC(=O)OC1C(=O)C2=C(C(=O)CC3C(C)(C)C(=O)CCC23C)C2(C)C(=O)CC(C(C)CC(=O)CC(C)C(=O)O)C12C (centres unmarked) | 94
* CC(CCC(O)C(C)(O)CO)C1CCC2(C)C3=C(C(=O)CC12C)C1(C)CCC(=O)C(C)(C)C1CC3 (centres unmarked) | 68.2
* CC1(C)CCC2(C(=O)O)CCC3(C)C(=CC(=O)C4C5(C)CCC(O)C(C)(C)C5CCC43C)C2C1 (centres unmarked) | 104
* CC(=CC(=O)CC(C)C(=O)O)C1CC(=O)C2(C)C3=C(C(=O)C(O)C12C)C1(C)CCC(=O)C(C)(CO)C1CC3O (centres unmarked) | 66.7
* CC(=CC(=O)CC(C)C(=O)O)C1CC(=O)C2(C)C3=C(C(=O)CC12C)C1(C)CCC(=O)C(C)(C)C1CC3O (centres unmarked) | 89.5
* CC(=O)OC1C(=O)C2=C(C(=O)CC3C(C)(C)C(=O)CCC23C)C2(C)C(=O)CC(C(C)CC(O)C=C(C)C(=O)O)C12C (centres unmarked) | 103
* CC(=O)OC1C(=O)C2=C(C(=O)CC3C2(C)CCC(O)C3(C)C)C2(C)C(=O)CC(C3(C)CCC(=O)O3)C12C (centres unmarked) | 86.9
* CC1(C)CCC2(C(=O)O)CCC3(C)C(=C2C1)C=CC1C2(C)CCC(O)C(C)(C)C2CCC13C (centres unmarked) | 72.7
